- Test Method Notes: Solubility test of the crystal form A
- Format: physicochemical
- Experimental Setup: organic solvent or mixture, thermodynamic from solid; Methanol; room temperature
Parameter Measured: solubility

{"Compound": "N=C(N)NOCCONC(=O)C1CCC2CN1C(=O)N2OS(=O)(=O)O (stereo not shown)", "Parameter Measured": "solubility", "Value Reported": "< 1.9 mg/mL"}

* * *

- Test Method Notes: Solubility test of the crystal form A
- Assay type: physicochemical
- Experimental Setup: organic solvent or mixture, thermodynamic from solid; Acetonitrile; room temperature
Parameter Measured: solubility

{"Compound": "N=C(N)NOCCONC(=O)C1CCC2CN1C(=O)N2OS(=O)(=O)O (stereo not shown)", "Value Reported": "< 1900 µg/mL"}

* * *

- Test Method Notes: Solubility test of the crystal form A
- Type: physicochemical
- Experimental Setup: organic solvent or mixture, thermodynamic from solid; n-Heptane; room temperature

{"Compound": "N=C(N)NOCCONC(=O)C1CCC2CN1C(=O)N2OS(=O)(=O)O (stereo not shown)", "solubility": "< 2000 µg/mL"}

* * *

- Test Method Notes: Solubility test of the crystal form A
- Format: physicochemical
- Experimental Setup: organic solvent or mixture, thermodynamic from solid; Butanone; room temperature

{"Compound": "N=C(N)NOCCONC(=O)C1CCC2CN1C(=O)N2OS(=O)(=O)O (stereo not shown)", "solubility": "< 2000 µg/mL"}

* * *

- Test Method Notes: Solubility test of the crystal form A
- Format: physicochemical
- Experimental Setup: organic solvent or mixture, thermodynamic from solid; Ethyl acetate; room temperature
Parameter Measured: solubility

{"Compound": "N=C(N)NOCCONC(=O)C1CCC2CN1C(=O)N2OS(=O)(=O)O (stereo not shown)", "Value Reported": "< 2000 µg/mL"}

* * *

- Test Method Notes: Solubility test of the crystal form A
- Type: physicochemical
- Experimental Setup: organic solvent or mixture, thermodynamic from solid; Cyclohexane; room temperature
Parameter Measured: solubility

{"Compound": "N=C(N)NOCCONC(=O)C1CCC2CN1C(=O)N2OS(=O)(=O)O (stereo not shown)", "Parameter Measured": "solubility", "Value Reported": "< 2100 µg/mL"}

* * *

- Test Method Notes: Solubility test of the crystal form A
- Assay type: physicochemical
- Experimental Setup: aqueous with cosolvent or surfactant or cyclodextrin, thermodynamic from solid; Ethanol-water (3:1); room temperature

{"Molecule": "N=C(N)NOCCONC(=O)C1CCC2CN1C(=O)N2OS(=O)(=O)O (stereo not shown)", "solubility": "< 2000 µg/mL"}

* * *

- Test Method Notes: Solubility test of the crystal form A
- Type: physicochemical
- Experimental Setup: aqueous with cosolvent or surfactant or cyclodextrin, thermodynamic from solid; Ethanol-water (1:1); room temperature

{"Molecule": "N=C(N)NOCCONC(=O)C1CCC2CN1C(=O)N2OS(=O)(=O)O (stereo not shown)", "solubility": "10.1 to 20.2 mg/mL"}

* * *

- Test Method Notes: Solubility test of the crystal form A
- Type: physicochemical
- Experimental Setup: organic solvent or mixture, thermodynamic from solid; Isopropanol; room temperature

{"Molecule": "N=C(N)NOCCONC(=O)C1CCC2CN1C(=O)N2OS(=O)(=O)O (stereo not shown)", "solubility": "< 2000 µg/mL"}

* * *

- Test Method Notes: Solubility test of the crystal form A
- Assay type: physicochemical
- Experimental Setup: organic solvent or mixture, thermodynamic from solid; Ethanol; room temperature

{"Compound": "N=C(N)NOCCONC(=O)C1CCC2CN1C(=O)N2OS(=O)(=O)O (stereo not shown)", "solubility": "< 1.9 mg/mL"}
